Each recorded value in this set is attributed to patent US20210380703A1.

target: human Fc (human); experiment: ELISA, negative control
Below, each entry is listed with its recorded optical density.
Just the number please, in OD, no unit attached.

binder="373_A11 (antibody, V domains shown) VH: EVQLLESGGGLVQPGGSLRLSCAASGFTFSNYGMNWVRQAPGKGLEWVANINYNGGYTGYADSVKGRFTISRDNSKNTLYLQMNSLRAEDTAVYYCARGANWHDTALDYWGQGTLVTVSS VL: DIQMTQSPSSLSASVGDRVTITCRASQSILTYLNWYQQKPGKAPKLLIYAATSRASGVPSRFSGSGSGTDFTLTISSLQPEDFATYYCQQSYDLPLTFGGGTKVEIK" experimental_readout="optical density" value_reported=0.184
binder="373_H12 (antibody, V domains shown) VH: EVQLLESGGGLVQPGGSLRLSCAASGFTFSDYSMNWVRQAPGKGLEWVSGINYNSGYKGYADSVKGRFTISRDNSKNTLYLQMNSLRAEDTAVYYCARSATWHDTHLDYWGQGTLVTVSS VL: DIQMTQSPSSLSASVGDRVTITCRASQSILTYLNWYQQKPGKAPKLLIYAATSRASGVPSRFSGSGSGTDFTLTISSLQPEDFATYYCQQSYNSPLTFGGGTKVEIK" experimental_readout="optical density" value_reported=0.162

May I ask what optical density has been recorded for 367_G04 (antibody, V domains shown) VH: EVQLLESGGGLVQPGGSLRLSCAASGFTFSSYSMNWVRQAPGKGLEWVAGINYNSGYTSYADSVKGRFTISRDNSKNTLYLQMNSLRAEDTAVYYCARGANWHDTHLDYWGQGTLVTVSS VL: DIQMTQSPSSLSASVGDRVTITCRASQSILSYLNWYQQKPGKAPKLVIYAATSRASGVPSRFSGSGSGTDFTLTISSLQPEDFATYYCQQSYDSPLTFGGGTKVEIK ?
0.287
